- SYSTEM: Ribonuclease HI (Escherichia coli (strain K12)) (UniProt P0A7Y4)
- Sequence (P0A7Y4 whole entry, looked up): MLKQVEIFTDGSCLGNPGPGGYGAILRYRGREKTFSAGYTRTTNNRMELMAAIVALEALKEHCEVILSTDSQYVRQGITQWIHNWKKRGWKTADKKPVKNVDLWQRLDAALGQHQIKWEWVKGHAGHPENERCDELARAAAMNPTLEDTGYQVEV
- ASSAY_INFO: E. coli RNase HI inhibitors, dose response, biochemical, FRET RNA/DNA duplex cleavage (AID 365)
- RUN_CONDITIONS: E. coli RNase H, FRET RNA/DNA cleavage fluorescence
The source made the active and inactive calls. The rule behind the calls is not given here.
Would you mind answering with one of these outcomes? YES (active), NO (inactive)

Field: example entries. Status: answers known.
INPUT_SMILES	ANSWER_LABEL
O=C1C(Cl)=C(Nc2ccc(S(=O)(=O)Nc3ccccn3)cc2)C(=O)c2ccccc21	YES
O=c1[nH]c2[nH]c(=S)[nH]c(=S)c2[nH]1	NO
Oc1ccc2ccccc2c1C=NCc1c(O)ccc2ccccc12	NO
O=C1NC(=S)N(c2ccccc2F)C(=O)/C1=C/c1ccc(I)o1	YES
COc1cc(C)cc2c(-c3c(O)cc(O)c4c3C[C@@H](C)N[C@@H]4C)cc(-c3cc(-c4c(O)cc(O)c5c4C[C@@H](C)N[C@@H]5C)c4cc(C)cc(OC)c4c3O)c(O)c12	YES
COc1ccc2oc(=O)c(-c3csc(Nc4ccc(Br)cc4)n3)cc2c1	YES

Input line: Which result was noted for this compound in the test: O=C1c2ccc(O)cc2C(=O)c2c1ccc(O)c2O
Output line: NO

---

- SYSTEM: Ribonuclease HI (Escherichia coli (strain K12))
- ASSAY_INFO: E. coli RNase HI inhibitors, dose response, biochemical, FRET RNA/DNA duplex cleavage (AID 365)
- RUN_CONDITIONS: E. coli RNase H, FRET RNA/DNA cleavage fluorescence
Active and inactive are the calls of the source. How the calls were made is not given here.
Would you mind answering with one of these outcomes? t for active, f for inactive

                                   molecule  answer_label
0      Cc1ccc(C(=O)Nc2sc(C)c(C)c2C(N)=O)cc1             t
1  CC(C)=CCC(O)C1=CC(=O)c2c(O)ccc(O)c2C1=O (stereo not given)             f
2  CCOC(=O)Oc1c(OC)cc(C(=O)O[C@@H]2C[C@@H]3CN4CCc5c([nH]c6cc(OC)ccc56)[C@H]4C[C@@H]3[C@H](C(=O)OC)[C@H]2OC)cc1OC             f
3  O=C(Nc1ccc(N2CCN(C(=O)c3ccccc3)CC2)cc1)c1ccc(-c2ccccc2)cc1             t

Input line: Which result was noted for this molecule in the test: CC(C)OC(=O)c1cc(O)c(O)c(O)c1
Output line: f

---

- SYSTEM: Ribonuclease HI (Escherichia coli (strain K12))
- ASSAY_INFO: E. coli RNase HI inhibitors, dose response, biochemical, FRET RNA/DNA duplex cleavage (AID 365)
- RUN_CONDITIONS: E. coli RNase H, FRET RNA/DNA cleavage fluorescence
Calls of active or inactive are those of the source. The rule behind the calls is not given here.
Would you mind answering with one of these outcomes? active, inactive

>>> df
                                   compound  answer_label
0  Cc1cc(C)c2c(=O)[nH]c(SCC(=O)c3ccc(O)c(O)c3)nc2n1        active
1  Nc1cc(S(N)(=O)=O)ccc1SSc1ccc(S(N)(=O)=O)cc1N      inactive

Input line: Which result was noted for this compound in the test: CCOc1ccc(NC(=O)c2c(NC(=O)c3ccco3)sc3c2CCCCC3)cc1
Output line: inactive

Input line: Which result was noted for this compound in the test: C=CCN1C(=O)/C(=C\c2ccc([N+](=O)[O-])o2)C(=O)NC1=S
Output line: active

Input line: Which result was noted for this compound in the test: CCOc1ccc(N2C(=O)/C(=C/c3ccc(Br)o3)C(=O)NC2=S)cc1
Output line: active

---

- SYSTEM: Ribonuclease HI (Escherichia coli (strain K12))
- ASSAY_INFO: E. coli RNase HI inhibitors, dose response, biochemical, FRET RNA/DNA duplex cleavage (AID 365)
- RUN_CONDITIONS: E. coli RNase H, FRET RNA/DNA cleavage fluorescence
Calls of active or inactive are those of the source. No rule for the calls is given here.
Would you mind answering with one of these outcomes? active, inactive

Field: example entries. Status: answers known.
>>> df
                                   compound  answer_label
0  CCCc1cc(=O)oc2c3c(c4c(c12)OC(C)(C)C=C4)O[C@H](C)[C@@H](C)[C@H]3OC      inactive
1  CC1=C(C)CC(C(=O)Nc2ccc(N3C(=O)c4ccccc4C3=O)cc2)C(C(=O)O)C1 (stereo not given)      inactive
2   C=C(C)[C@@H]1CCc2c(O)c(O)c(=O)cc(C)c2C1      inactive

Input line: Which result was noted for this compound in the test: COc1ccc(N2C(=O)/C(=C/c3ccc(I)o3)C(=O)NC2=S)cc1
Output line: active

Input line: Which result was noted for this compound in the test: COc1c(OC)c(O)c2c(=O)cc(-c3ccc(O)c(O)c3)oc2c1OC
Output line: inactive

---

- SYSTEM: Ribonuclease HI (Escherichia coli (strain K12)) (UniProt P0A7Y4)
- ASSAY_INFO: E. coli RNase HI inhibitors, dose response, biochemical, FRET RNA/DNA duplex cleavage (AID 365)
- RUN_CONDITIONS: E. coli RNase H, FRET RNA/DNA cleavage fluorescence
Calls of active or inactive are those of the source. How the calls were made is not given here.
OBSERVATION_TYPE: IC50

Recorded IC50, per entry:
>>> print(df.to_string())
                                   molecule  observation_type               result
0       C=CCn1c(N)c(-c2nc3ccccc3[nH]2)sc1=S              IC50             inactive
1      Cc1sc(NC(=O)c2ccc(Br)o2)c(C(N)=O)c1C              IC50                 4 µM
2  CCCCCCCCCCCCCCCCCCOCC(O)CO (configuration not stated)              IC50  > 100 µM (inactive)
3     O=[N+]([O-])c1c(Cl)cccc1-c1c[nH]cc1Cl              IC50  > 100 µM (inactive)

# input for lookup
Input line: Recorded IC50 of Cc1cc(-c2ccc(C=C3C(=O)NC(=S)NC3=O)o2)c([N+](=O)[O-])cc1C , please.
Output line: 8.8 µM

---

- SYSTEM: Ribonuclease HI (Escherichia coli (strain K12)) (UniProt P0A7Y4)
- ASSAY_INFO: E. coli RNase HI inhibitors, dose response, biochemical, FRET RNA/DNA duplex cleavage (AID 365)
- RUN_CONDITIONS: E. coli RNase H, FRET RNA/DNA cleavage fluorescence
The source made the active and inactive calls. The rule behind the calls is not given here.
Would you mind answering with one of these outcomes? active, inactive

Field: example entries. Status: answers known.
>>> df
                                   compound  answer_label
0  Cc1sc(NC(=O)c2ccc3c(c2)OCO3)c(C(N)=O)c1C        active
1  CC1C2C=CC1C(c1c3ccc(=O)c(O)c-3oc3c(O)c(O)ccc13)C2C(=O)O (stereo not given)        active
2  C[N+](C)=c1ccc2nc3c(cc(Nc4ccccc4)c4ccccc43)oc-2c1        active
3  O=C(NC(=S)Nc1cc(-c2nc3ccccc3s2)ccc1Cl)c1ccc(F)cc1        active
4             O=c1c(O)cccc2cc(O)c(O)c(O)c12      inactive
5  O=C1NC(=S)S/C1=C/c1cccc(OCc2ccc(Cl)c(Cl)c2)c1        active
6  COc1ccc(C(=O)NC(=S)Nc2ccc3nn(-c4ccc(C)c(Cl)c4)nc3c2)cc1[N+](=O)[O-]      inactive
7  O=c1c(O)c(-c2cc(O)c(O)c(O)c2)oc2cc(O)cc(O)c12      inactive
8      Cc1cc(O)c2c(c1O)C(=O)c1cccc(O)c1C2=O      inactive

Input line: Which result was noted for this compound in the test: O=[N+]([O-])c1cc(Cc2cc([N+](=O)[O-])c3cccnc3c2O)c(O)c2ncccc12
Output line: inactive

---

- SYSTEM: Ribonuclease HI (Escherichia coli (strain K12))
- ASSAY_INFO: E. coli RNase HI inhibitors, dose response, biochemical, FRET RNA/DNA duplex cleavage (AID 365)
- RUN_CONDITIONS: E. coli RNase H, FRET RNA/DNA cleavage fluorescence
Activity calls are given as the source filed them. How the calls were made is not given here.
Would you mind answering with one of these outcomes? yes for active, no for inactive

>>> print(df.to_string())
                               input_smiles  answer_label
0  Cc1cccc(NC(=O)c2c(NC(=O)c3ccc([N+](=O)[O-])cc3)sc3c2CCCC3)c1           yes
1            Cc1ccc(C)n1-c1ccc(SCC(=O)O)cc1            no
2    O=C1NC(=S)N(c2ccccc2F)C(=O)C1=Cc1ccco1           yes
3  Nc1nc(Sc2ccc([N+](=O)[O-])c3nonc23)c2[nH]cnc2n1            no
4             CCOc1ccc(C2=CC(=O)C=CC2=O)cc1            no

Now look at this one.
Input line: Which result was noted for this compound in the test: Cc1cccc(NCC(=O)N/N=C\c2c(Br)cc(Br)c(O)c2Br)c1
Output line: no
